- Test system: MCF7
- protocol-details: Antiproliferative activity against human MCF7 cells after 48 hrs by MTT assay
- Format: functional, cell-based
- measurement-parameters: MCF7, 48 h
observation-type: IC50 (µg/mL)

I: O=C(/C=C/c1cc(Br)cc(Br)c1Oc1c([N+](=O)[O-])cc(C(F)(F)F)cc1[N+](=O)[O-])c1ccc(F)cc1
II: Cc1ccc(C(=O)/C=C/c2cc(Br)ccc2Oc2c([N+](=O)[O-])cc(C(F)(F)F)cc2[N+](=O)[O-])cc1
III: Cc1ccc(C(=O)/C=C/c2cc(Cl)ccc2Oc2c([N+](=O)[O-])cc(C(F)(F)F)cc2[N+](=O)[O-])cc1
Request: Give the descending IC50 ranking for the 3 compounds listed above. # format: label list in the order the request specifies
Response: I, II, III
(I: 8.06 µg/mL, II: 0.55 µg/mL, III: 0.03 µg/mL)

Values from ChEMBL document CHEMBL2016516
